- assayedTarget: glutathione S-transferase (GST)-fused full-length human Syk protein (Homo sapiens, UniProt P43405)
- Construct: (GST)-fused full-length human Syk protein; GST (glutathione S-transferase); purchased Carna Biosciences
- methodSummary: Syk enzyme assay
- Assay type: biochemical
- conditionLabel: Syk enzyme assay, Test Example 1; read-out: IC50 of Syk-inhibitory activity
measuredParameter: IC50

molecule	measured
CCn1nc(C(C)C)c2cc(Nc3nc(N[C@@H]4CCCC[C@@H]4N)c(F)cc3C(N)=O)ccc21	< 10 nM
COc1cc(Nc2nc(N[C@H](CC(C)C)[C@H](C)N)c(F)cc2C(N)=O)ccn1	< 10 nM
CCNc1nc(Nc2cc(OC)cc(OC)c2)c(C(N)=O)cc1F	100 to 1000 nM
COCCOc1ncc(Nc2nc(N[C@@H]3CCCC[C@@H]3N)c(F)cc2C(N)=O)cc1C1CC1	10 to 50 nM
NC(=O)c1cc(F)c(N[C@@H]2CCCC[C@@H]2N)nc1Nc1cncc(-c2cccc(N3CCCC3=O)c2)c1 (relative stereo)	10 to 50 nM
C[C@H](N)[C@@H](CC1CC1)Nc1nc(Nc2ccc3c(cnn3CCF)c2)c(C(N)=O)cc1F	< 10 nM
COc1ncc(Nc2nc(NC3CCCCC3N)c(F)cc2C(N)=O)cc1-c1ccccc1F (stereo not shown)	10 to 50 nM
COc1nccc2c(Nc3nc(N[C@@H]4CCCC[C@@H]4N)c(F)cc3C(N)=O)cccc12 (relative stereo)	< 10 nM
CN1CCOc2nc3ccc(Nc4nc(NC5CCCCC5N)c(F)cc4C(N)=O)cc3nc21 (stereo not shown)	< 10 nM
NC(=O)c1cc(F)c(N[C@@H]2CCCC[C@@H]2N)nc1Nc1cnc2nccnc2c1	100 to 1000 nM

---

Parameter: pIC50. Scope: all listed entries.
- assayedTarget: glutathione S-transferase (GST)-fused full-length human Syk protein (Homo sapiens, UniProt P43405)
- Construct: (GST)-fused full-length human Syk protein; GST (glutathione S-transferase); purchased Carna Biosciences
- methodSummary: Syk enzyme assay
- Assay type: biochemical
- conditionLabel: Syk enzyme assay, Test Example 1; read-out: IC50 of Syk-inhibitory activity
pIC50: −log10 of the molar value.
measuredParameter: pIC50

compound	measured
COc1cc(Nc2nc(N[C@@H]3CCOC[C@@H]3N)c(F)cc2C(N)=O)ccn1	> 8.00
COc1ncc(Nc2nc(N[C@@H]3CCCC[C@@H]3N)c(F)cc2C(N)=O)cc1-n1nccn1	> 8.00
COCCOc1cc(Nc2nc(N[C@@H]3CCCC[C@@H]3N)c(F)cc2C(N)=O)cc2cccnc12 (relative stereo)	> 8.00
CC(C)C[C@@H](Nc1nc(Nc2ccc3ncccc3c2)c(C(N)=O)cc1F)C(N)=O	> 8.00
C[C@H](N)[C@H](Nc1nc(Nc2ccc(N3CCOCC3)nc2)c(C(N)=O)cc1F)C1CC1	> 8.00
CCCOc1cc(Nc2nc(N[C@@H]3CCCC[C@@H]3N)c(F)cc2C(N)=O)ccn1	> 8.00
Cc1cncc(Nc2nc(N[C@@H]3CCCC[C@@H]3N)c(F)cc2C(N)=O)c1	> 8.00
COc1cc(Nc2nc(NCCc3c[nH]c4ccccc34)c(F)cc2C(N)=O)cc(OC)c1	6.00 to 7.00
CN(C)C(=O)c1cncc(Nc2nc(N[C@@H]3CCCC[C@@H]3N)c(F)cc2C(N)=O)c1	6.00 to 7.00
CCC[C@@H](Nc1nc(Nc2ccnc(OCCOC)c2)c(C(N)=O)cc1F)[C@H](C)N	> 8.00
COCCn1ncc2c(Nc3nc(NC4CCCCC4N)c(F)cc3C(N)=O)cccc21 (centres unmarked)	> 8.00

---

- Test system: THP-1 cells
- methodSummary: TNFα generation assay
- Assay type: cell-based, human
- conditionLabel: Homo sapiens, THP-1, THP-1 cells; Table 22; read-out: IC50 in TNFα generation assay
- Method: THP-1 cells (2×10^5 cells/ml), which were human monocytoid cells, were cultured in the presence of 10 ng/ml IFN-γ (Roche) for 2 days, so that the cells were induced to differentiate into macrophage-like cells. […] Thereafter, the cultured solution was recovered, and the amount of TNFα secreted into the culture solution was then measured by the ELISA method (Roche/R & D Systems) or the AlphaLISA method (PerkinElmer).
pIC50: −log10 of the molar value.
Parameter: pIC50. Scope: all listed entries.
measuredParameter: pIC50

compound	measuredParameter	measured
CC[C@H](N)[C@@H](C)Nc1nc(Nc2ccc3ncccc3c2)c(C(N)=O)cc1F	pIC50	6.89 to 7.19
NC(=O)c1cc(F)c(NC[C@@H](N)c2ccsc2)nc1Nc1ccc2ncccc2c1	pIC50	6.89 to 7.19
CC(C)C[C@H](CN)Nc1nc(Nc2cncc(-c3ccccc3F)c2)c(C(N)=O)cc1F	pIC50	6.70 to 6.89
NC(=O)c1cc(F)c(NC2CCCCC2N)nc1Nc1ccnc(-c2cccc(F)c2F)c1 (stereo not shown)	pIC50	6.70 to 6.89
CC[C@H](N)[C@@H](CC)Nc1nc(Nc2cc(OC)nc(OC)c2)c(C(N)=O)cc1F	pIC50	6.70 to 6.89
COCCOc1cc(Nc2nc(NC3CCCCC3N)c(F)cc2C(N)=O)ccn1 (stereo not shown)	pIC50	6.70 to 6.89
Cc1nn(C)c2ccc(Nc3nc(NC4CCCCC4N)c(F)cc3C(N)=O)cc12 (stereo not shown)	pIC50	> 7.19

---

- assayedTarget: glutathione S-transferase (GST)-fused full-length human Syk protein (Homo sapiens, UniProt P43405)
- Construct: (GST)-fused full-length human Syk protein; GST (glutathione S-transferase); purchased Carna Biosciences
- methodSummary: Syk enzyme assay
- Assay type: biochemical
- conditionLabel: Syk enzyme assay, Test Example 1; read-out: IC50 of Syk-inhibitory activity
- Protocol: A glutathione S-transferase (GST)-fused full-length human Syk protein (Carna Biosciences), which had been generated using a Baculovirus expression system, was used in the Syk enzyme assay. 15 μl of a reaction solution (1.2 ng Syk, 20 mM HEPES, 10 mM MgCl2, 50 mM NaCl, 2 mM DTT, 0.05% BSA, pH 7.0) containing a Syk protein and a predetermined concentration of a test compound was shaken for 2 minutes, and it was then left at rest at room temperature for 13 minutes. […]
measuredParameter: IC50

compound	measuredParameter	measured
CNc1cccc(-c2cncc(Nc3nc(N[C@@H]4CCCC[C@@H]4N)c(F)cc3C(N)=O)c2)c1 (relative stereo)	IC50	< 10 nM
NC(=O)c1cc(F)c(N[C@@H]2CCCC[C@@H]2N)nc1Nc1ccnc2[nH]ccc12 (relative stereo)	IC50	< 10 nM
CC[C@@H](Nc1nc(Nc2ccc3c(c2)c(C2CC2)nn3CC)c(C(N)=O)cc1F)[C@H](C)N	IC50	< 10 nM
NC(=O)c1cc(F)c(N[C@@H]2CCCC[C@@H]2N)nc1Nc1ccnc(-n2nccn2)c1 (relative stereo) [Example 006-125]	IC50	< 10 nM
COCCOc1ncc(Nc2nc(N[C@@H]3CCCC[C@@H]3N)c(F)cc2C(N)=O)cc1Cl	IC50	50 to 100 nM
Cc1cnc2cc(Nc3nc(N[C@H](C)[C@H](C)N)c(F)cc3C(N)=O)ccc2n1 (racemic)	IC50	10 to 50 nM
C[C@H](N)[C@H](Nc1nc(Nc2cncc(-n3cccn3)c2)c(C(N)=O)cc1F)C1CC1	IC50	< 10 nM
NC(=O)c1cc(F)c(NC2CCCCC2N)nc1Nc1cncc(NC(=O)c2ccc3sccc3c2)c1 (stereo not shown)	IC50	10 to 50 nM
CCOCCOCCn1cc2cc(Nc3nc(N[C@@H]4CCCC[C@@H]4N)c(F)cc3C(N)=O)ccc2n1 (relative stereo)	IC50	< 10 nM
NC(=O)c1cc(F)c(N[C@@H]2CCCC[C@@H]2N)nc1Nc1cncc2[nH]ccc12 (relative stereo)	IC50	< 10 nM

---

- System: THP-1 cells
- methodSummary: TNFα generation assay
- Assay type: cell-based, human
- conditionLabel: Homo sapiens, THP-1, THP-1 cells; Table 22; read-out: IC50 in TNFα generation assay
pIC50: −log10 of the molar value.

compound	pIC50
COc1ccccc1-c1cncc(Nc2nc(N[C@@H]3CCCC[C@@H]3N)c(F)cc2C(N)=O)c1 (relative stereo)	6.70 to 6.89
COc1cc(Nc2nc(N[C@H](CC3CC3)[C@H](C)N)c(F)cc2C(N)=O)ccn1	6.89 to 7.19
NC[C@@H](CC1CC1)Nc1nc(Nc2ccc3ncccc3c2)c(C(N)=O)cc1F	6.89 to 7.19
NC(=O)c1cc(F)c(N[C@@H]2CCCC[C@@H]2N)nc1Nc1cncc(-c2ncccn2)c1 (relative stereo)	6.70 to 6.89
CCCC[C@H](CN)Nc1nc(Nc2cncc(-n3cccn3)c2)c(C(N)=O)cc1F	6.89 to 7.19
NC(=O)c1cc(F)c(N[C@@H]2CCCC[C@@H]2N)nc1Nc1ccc2c(cnn2C2CC2)c1	6.89 to 7.19
NC(=O)c1cc(F)c(N[C@@H]2CCCC[C@@H]2N)nc1Nc1cncc(-c2ccc3c(c2)OCCO3)c1 (relative stereo)	6.70 to 6.89
NC(=O)c1cc(F)c(NCC(N)C(F)(F)F)nc1Nc1ccc2ncccc2c1 (centres unmarked)	6.89 to 7.19
NC(=O)c1cc(F)c(N[C@@H]2CCCC[C@@H]2N)nc1Nc1cnc2c(NCC3CC3)cccc2c1	6.70 to 6.89
NC(=O)c1cc(F)c(NC2CCCCC2N)nc1Nc1ccnc(-c2ccco2)c1 (centres unmarked)	6.89 to 7.19
CCC[C@@H](Nc1nc(Nc2ccnc(-n3cncn3)c2)c(C(N)=O)cc1F)[C@H](C)N	> 7.19
Cc1nn(C)c2ccc(Nc3nc(N[C@H](CC(C)C)[C@H](C)N)c(F)cc3C(N)=O)cc12	> 7.19
COCCOc1ncc(Nc2nc(N[C@@H]3CCCC[C@@H]3N)c(F)cc2C(N)=O)cc1-n1nccn1	6.89 to 7.19
NC(=O)c1cc(F)c(NC[C@@H](N)c2ccccn2)nc1Nc1ccc2ncccc2c1	6.70 to 6.89
CCC[C@@H](Nc1nc(Nc2cnc(C)c(C)c2)c(C(N)=O)cc1F)[C@H](C)N	6.89 to 7.19
CC(C)C[C@H](CN)Nc1nc(Nc2ccc3cnn(C)c3c2)c(C(N)=O)cc1F	6.89 to 7.19
CCC[C@@H](Nc1nc(Nc2ccnc(OCCOC)c2)c(C(N)=O)cc1F)[C@@H](N)CC	6.70 to 6.89
Cc1cc(Nc2nc(N[C@@H]3CCCC[C@@H]3N)c(F)cc2C(N)=O)cnc1-n1nccn1	6.89 to 7.19
CCn1nc(C)c2cc(Nc3nc(N[C@H](C4CC4)[C@H](C)N)c(F)cc3C(N)=O)ccc21	> 7.19
COc1ccc(-c2cc(Nc3nc(NC4CCCCC4N)c(F)cc3C(N)=O)ccn2)c(F)c1 (centres unmarked)	6.70 to 6.89
CCc1nn(CC)c2ccc(Nc3nc(N[C@H](CC4CC4)[C@H](C)N)c(F)cc3C(N)=O)cc12	6.70 to 6.89
CC[C@@H](Nc1nc(Nc2cccc3cccnc23)c(C(N)=O)cc1F)[C@H](C)N	6.70 to 6.89
NC(=O)c1cc(F)c(N[C@@H]2CCCC[C@@H]2N)nc1Nc1cncc(-c2ccco2)c1 (relative stereo)	6.89 to 7.19
